Origin of measurements: patent US12291519B2

Biological target: human Gal-1 (hGal-1)
Sequence (P09382 2-135 limits assumed): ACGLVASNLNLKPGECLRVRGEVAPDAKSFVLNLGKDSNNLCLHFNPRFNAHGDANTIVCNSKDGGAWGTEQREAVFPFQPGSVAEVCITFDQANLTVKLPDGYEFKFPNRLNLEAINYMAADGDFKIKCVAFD
Assay: Competitive binding assay: biotinylated hGal-1 binding to microplate-adsorbed asialofetuin (ASF)
Details: Activity on hGal-1; binding of biotinylated hGal-1 to ASF-coated plates; mean values
pIC50: −log10 of the molar value.
observed.property: pIC50

compound	tgt	pIC50
CC(=O)O[C@@H]1[C@@H](n2cc(-c3cc(F)cc(F)c3)nn2)[C@@H](O)[C@@H](CO)O[C@H]1C(=O)N(Cc1ccnn1C)[C@H]1CCCC[C@@H]1O [Example 49]	human Gal-1 (hGal-1)	5.71
CO[C@@H]1[C@@H](n2cc(-c3cc(F)c(F)c(F)c3)nn2)[C@@H](O)[C@@H](CO)O[C@H]1C(=O)N(c1ccc(C(F)(F)F)c(Cl)c1)[C@H]1CCCC[C@@H]1O [Example 91]	human Gal-1 (hGal-1)	5.81
CO[C@@H]1[C@@H](n2cc(-c3cc(F)c(F)c(F)c3)nn2)[C@@H](O)[C@@H](CO)O[C@H]1C(=O)N(Cc1sccc1Cl)[C@H]1CCCC[C@@H]1O [Example 35]	human Gal-1 (hGal-1)	5.79
O=C([C@@H]1O[C@H](CO)[C@H](O)[C@H](n2cc(-c3cc(F)c(F)c(F)c3)nn2)[C@H]1O)N(Cc1ncccc1C(F)(F)F)[C@H]1CCCC[C@@H]1O [Example 13]	human Gal-1 (hGal-1)	5.14
CO[C@@H]1[C@@H](n2cc(-c3cc(F)cc(Cl)c3)nn2)[C@@H](O)[C@@H](CO)O[C@H]1C(=O)N(c1cc(C)cc(C#N)c1)[C@H]1CCCC[C@@H]1O [Example 140]	human Gal-1 (hGal-1)	6.17

P. CCn1nccc1CN(C(=O)[C@@H]1O[C@H](CO)[C@H](O)[C@H](n2cc(-c3cc(F)c(F)c(F)c3)nn2)[C@H]1OC)[C@H]1CCCC[C@@H]1O [Example 44]
Q. O=C([C@@H]1O[C@H](CO)[C@H](O)[C@H](n2cc(-c3cc(F)c(F)c(F)c3)nn2)[C@H]1O)N(Cc1cccnc1C(F)(F)F)[C@H]1CCCC[C@@H]1O [Example 9]
R. CO[C@@H]1[C@@H](n2cc(-c3ccc(C)c(F)c3)nn2)[C@@H](O)[C@@H](CO)O[C@H]1C(=O)N(c1cc(Br)cc(C#N)c1)[C@H]1CCCC[C@@H]1O [Example 200]
S. CC(=O)O[C@@H]1[C@@H](n2cc(-c3cc(F)c(F)c(F)c3)nn2)[C@@H](O)[C@@H](CO)O[C@H]1C(=O)N(Cc1nccn1C)[C@H]1CCCC[C@@H]1O [Example 42]
T. CO[C@@H]1[C@@H](n2cc(-c3cc(F)c(F)c(F)c3)nn2)[C@@H](O)[C@@H](CO)O[C@H]1C(=O)N(c1ccc(F)c(F)c1)[C@H]1CCCC[C@@H]1O [Example 56]
Request: Arrange by pIC50, high to low. List labels; respect the requested ordering.
Result: R, T, P, Q, S

###

Biological target: human Gal-3 (hGal-3) (Homo sapiens (Human))
Sequence (P17931 whole entry): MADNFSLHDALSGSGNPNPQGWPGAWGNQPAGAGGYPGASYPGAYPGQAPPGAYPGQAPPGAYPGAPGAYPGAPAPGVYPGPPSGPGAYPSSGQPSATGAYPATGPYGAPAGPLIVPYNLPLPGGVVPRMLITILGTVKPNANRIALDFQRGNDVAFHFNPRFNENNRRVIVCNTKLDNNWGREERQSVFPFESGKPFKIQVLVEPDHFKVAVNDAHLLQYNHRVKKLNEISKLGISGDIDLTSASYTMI
observed.property: IC50 (nM)

smiles.repr	recorded.value
CO[C@@H]1[C@@H](n2cc(-c3cc(F)c(F)c(F)c3)nn2)[C@@H](O)[C@@H](CO)O[C@H]1C(=O)N(c1cc(Cl)cc(C(F)(F)F)c1)[C@H]1CCCC[C@@H]1O	16
CO[C@@H]1[C@@H](n2cc(-c3ccc(Br)c(F)c3F)nn2)[C@@H](O)[C@@H](CO)O[C@H]1C(=O)N(c1cc(Cl)cc(C#N)c1)[C@H]1CCCC[C@@H]1O	13
CO[C@@H]1[C@@H](n2cc(-c3cc(F)c(F)c(F)c3)nn2)[C@@H](O)[C@@H](CO)O[C@H]1C(=O)N(Cc1sncc1Cl)[C@H]1CCCC[C@@H]1O	311
O=C([C@@H]1O[C@H](CO)[C@H](O)[C@H](n2cc(-c3cc(F)c(F)c(F)c3)nn2)[C@H]1O)N(Cc1cnoc1)[C@H]1CCCC[C@@H]1O	476
CO[C@@H]1[C@@H](n2cc(-c3cc(F)c(F)c(F)c3)nn2)[C@@H](O)[C@@H](CO)O[C@H]1C(=O)N(Cc1sccc1Cl)[C@H]1CCCC[C@@H]1O	210
Cc1ccc(-c2cn([C@H]3[C@@H](O)[C@@H](CO)O[C@@H](C(=O)N(c4cc(Cl)cc(C#N)c4)[C@H]4CCCC[C@@H]4O)[C@@H]3OCC(=O)O)nn2)c(F)c1F	11
O=C(CO[C@@H]1[C@@H](n2cc(-c3cc(F)c(F)c(F)c3)nn2)[C@@H](O)[C@@H](CO)O[C@H]1C(=O)N(c1cc(Cl)cc(Cl)c1)[C@H]1CCCC[C@@H]1O)N1CC(O)C1	13
CO[C@@H]1[C@@H](n2cc(-c3cc(F)cc(Br)c3)nn2)[C@@H](O)[C@@H](CO)O[C@H]1C(=O)N(c1cc(C)cc(C#N)c1)[C@H]1CCCC[C@@H]1O	50

A. CO[C@@H]1[C@@H](n2cc(-c3cc(F)cc(Cl)c3)nn2)[C@@H](O)[C@@H](CO)O[C@H]1C(=O)N(c1cccc(C#N)c1)[C@H]1CCCC[C@@H]1O
B. CO[C@@H]1[C@@H](n2cc(-c3cc(F)c(F)c(F)c3)nn2)[C@@H](O)[C@@H](CO)O[C@H]1C(=O)N(c1ccc(F)c(F)c1)[C@H]1CCCC[C@@H]1O
Request: When A and B are compared, which has the higher number for IC50? Return value: the label identifying the chosen record.
Result: A
(A: 77 nM, B: 42 nM)

###

Target: human Gal-1 (hGal-1)
Experiment: Competitive binding assay: biotinylated hGal-1 binding to microplate-adsorbed asialofetuin (ASF)
Conditions: Activity on hGal-1; binding of biotinylated hGal-1 to ASF-coated plates; mean values
observed.property: IC50 (nM)

See these solved cases before continuing.
compound	tgt	unit.symbol	IC50
CO[C@@H]1[C@@H](n2cc(-c3cc(F)c(F)c(F)c3)nn2)[C@@H](O)[C@@H](CO)O[C@H]1C(=O)N(Cc1nc2ccccc2cc1Cl)[C@H]1CCCC[C@@H]1O [Example 65]	human Gal-1 (hGal-1)	nM	6770
COc1ccccc1CN(C(=O)[C@@H]1O[C@H](CO)[C@H](O)[C@H](n2cc(-c3cc(F)c(F)c(F)c3)nn2)[C@H]1OC)[C@H]1CCCC[C@@H]1O [Example 39]	human Gal-1 (hGal-1)	nM	2960

I. COc1cccc(N(C(=O)[C@@H]2O[C@H](CO)[C@H](O)[C@H](n3cc(-c4cc(F)cc(F)c4)nn3)[C@H]2OC)[C@H]2CCCC[C@@H]2O)c1 [Example 79]
II. CO[C@@H]1[C@@H](n2cc(-c3cc(F)cc(F)c3)nn2)[C@@H](O)[C@@H](CO)O[C@H]1C(=O)N(c1cc(Cl)cc(C#N)c1)[C@H]1CCCC[C@@H]1O [Example 80]
III. CC(=O)O[C@@H]1[C@@H](n2cc(-c3cc(F)c(Cl)c(F)c3)nn2)[C@@H](O)[C@@H](CO)O[C@H]1C(=O)N(Cc1ccnn1C)[C@H]1CCCC[C@@H]1O [Example 50]
Request: // ascending sort on recorded IC50 Order the labels as requested and give them as your answer.
Result: II, I, III

###

Target: human Gal-3 (hGal-3) (Homo sapiens (Human))
Assay: Competitive binding assay: biotinylated hGal-3 binding to microplate-adsorbed asialofetuin (ASF)
Settings: Activity on hGal-3; binding of biotinylated hGal-3 to ASF-coated plates; mean values
pIC50: −log10 of the molar value.
observed.property: pIC50

compound	tgt	pIC50
CO[C@@H]1[C@@H](n2cc(-c3cc(F)c(F)c(F)c3)nn2)[C@@H](O)[C@@H](CO)O[C@H]1C(=O)N(c1cc(Cl)ccc1C)[C@H]1CCCC[C@@H]1O [Example 89]	human Gal-3 (hGal-3) (Homo sapiens (Human))	8.00
CO[C@@H]1[C@@H](n2cc(-c3cc(F)c(C)c(F)c3)nn2)[C@@H](O)[C@@H](CO)O[C@H]1C(=O)N(c1cc(F)cc(C#N)c1)[C@H]1CCCC[C@@H]1O [Example 161]	human Gal-3 (hGal-3) (Homo sapiens (Human))	7.60
O=C([C@@H]1O[C@H](CO)[C@H](O)[C@H](n2cc(-c3cc(F)c(F)c(F)c3)nn2)[C@H]1O)N(Cc1cccnc1C(F)(F)F)[C@H]1CCCC[C@@H]1O [Example 9]	human Gal-3 (hGal-3) (Homo sapiens (Human))	6.83

P. CO[C@@H]1[C@@H](n2cc(-c3cc(F)c(C)c(F)c3)nn2)[C@@H](O)[C@@H](CO)O[C@H]1C(=O)N(c1cc(Cl)cc(C#N)c1)[C@H]1CCCC[C@@H]1O [Example 159]
Q. CO[C@@H]1[C@@H](n2cc(-c3ccc(F)c(F)c3)nn2)[C@@H](O)[C@@H](CO)O[C@H]1C(=O)N(c1cc(Cl)cc(Cl)c1)[C@H]1CCCC[C@@H]1O [Example 162]
Request: Lab note: check whether P or Q shows the higher recorded pIC50. When you have decided, please share the label of that item.
Result: P
(P: 7.92, Q: 7.49)
